readout type: melting point

The examples below pair each entry with its known result.
| substance smiles | result value |
| --- | --- |
| CCSc1nc2c(C(=O)OC)sc(-c3ccccc3)c2[nH]1 | 214 to 215 °C |
| CC(=C1SC(=O)NC1=O)c1cccc(OCCOc2c(-c3ccc(F)cc3C)n(C)c3ccccc3c2=O)c1 | 225 to 226 °C |

Consider the additional compound presented here.
Report melting point, nothing else, for this compound: CN1c2ccccc2C(c2ccccc2Cl)=Nc2cccnc21
132 to 133 °C

----------
readout type: melting point

The examples below pair each entry with its known result.
| molecule | melting point |
| --- | --- |
| Cc1cccc2ncc(C(=O)NCC(C)(C)C)c(=O)n12 | 191 to 194 °C |
| C=CC[C@H]1C(=O)N(S(C)(=O)=O)[C@H]2CCN(C(=O)OCc3ccccc3)[C@H]12 (relative stereo) | 92 to 94 °C |
| CCn1c(=S)sc2c(=N)n(NC(N)=O)cnc21 | 212 °C |
| CCCCN(CC)c1nc(C)nc2c1NC(=O)CN2c1ccc(C(C)C)cc1Br | 146 to 147 °C |
| O=C1CCCc2c1c1ccccc1n2Cc1ccccc1 | 157 to 158 °C |

Report melting point, nothing else, for this molecule: O=C1C(Cc2ccccc2)SC(=S)N1c1nccs1 (stereo not drawn)
164 to 165 °C

Report melting point, nothing else, for this molecule: O=C(O)Cc1ccc(Oc2ccc(CC3SC(=O)NC3=O)cc2)cc1 (stereo not drawn)
166 °C

Report melting point, nothing else, for this molecule: Cc1ccc(C(=O)Nc2cccc(C(F)(F)F)c2)cc1/C=C/n1cnc2c(NC3CC3)ncnc21
201 °C

Report melting point, nothing else, for this molecule: Cc1cccc(C)c1N(CCCC(=O)NCC(=O)O)C(=O)c1ccc(Cl)cc1
141 to 142 °C

Report melting point, nothing else, for this molecule: O=C1CCC(C2CCCCC2)C(=O)C1 (stereo not drawn)
137 to 140 °C

----------
Recorded measurements of melting point, one per entry

The examples below pair each entry with its known result.
| molecule | melting point |
| --- | --- |
| COC(=O)c1cc2cc(C(=O)c3cccc(C(C)C#N)c3)sc2s1 (stereo not given) | 163 °C |
| CCn1ncc2c(NCC3CCC(C(=O)OCSC)CC3)c3ccccc3nc21 (stereo not given) | 135 to 136 °C |

Consider the additional molecule presented here.
Report melting point, nothing else, for this molecule: CN(C)Cc1ccc2sc(S(N)(=O)=O)cc2c1
172 to 174 °C

----------
readout type: melting point

| compound | result value |
| --- | --- |
| CCCn1nc2c(N)nc3ccccc3c2c1CCCCS(N)(=O)=O | 211 to 213 °C |
| CC1CC(=O)NN=C1c1ccc(-n2ccc(=O)cc2)cc1 (stereo unspecified) | 254 to 256 °C |
| N#Cc1cc(SC(F)(F)F)[nH]c1-c1ccc(Cl)cc1 | 203 to 205 °C |
| CCCc1ccn(-c2ccc(S(C)(=O)=O)cc2)c1-c1ccc(F)cc1 | 116 to 117 °C |

Report melting point, nothing else, for this compound: Clc1ccc(C(c2ccccc2)c2cn[nH]c2)c(Cl)c1 (stereo unspecified)
131 °C

Report melting point, nothing else, for this compound: CC=CC(=O)Nc1ccc2c(Nc3cccc(Br)c3)ncnc2c1
> 250 °C

----------
readout type: melting point

| substance smiles | melting point |
| --- | --- |
| O=C(Nc1nc(OCc2ccc(F)cc2)ncc1F)Oc1ccccc1 | 129 to 131 °C |
| CC1(C)COCC(=O)N1NCc1ccccc1 | 76 to 77 °C |
| N#Cc1ccc(Cn2nc(-c3ccccc3O)nc2-c2ccccc2O)cc1 | 147 to 149 °C |
| CCn1nc(-c2ccccc2)c(C(C)=O)c(N)c1=O | 151 to 153 °C |
| COc1ccc(CNc2nc(N3CCC[C@H]3CO)ncc2C(=O)O)cc1Cl | 205 to 208 °C |

Consider the additional compound presented here.
Report melting point, nothing else, for this compound: Oc1ccc(-c2ncc3ncc(-c4ccco4)cc3n2)cc1
261 to 263 °C

----------
readout type: melting point

The examples below pair each entry with its known result.
| substance smiles | readout type | result value |
| --- | --- | --- |
| COc1ccc(S(=O)(=O)C2(C(=O)O)CCN(CCCOc3ccccc3)CC2)cc1 | melting point | 101 °C |
| CCCN(CCC)Cc1coc(-c2ncn3c2CN(C)C(=O)c2sccc2-3)n1 | melting point | 110 to 111 °C |

Consider the additional molecule presented here.
Report melting point, nothing else, for this molecule: CC(C)(C)OC(=O)c1cc(Cl)nc(Cl)c1
79 to 81 °C

----------
Recorded measurements of melting point, one per entry

The examples below pair each entry with its known result.
| compound | melting point |
| --- | --- |
| CCOC(=O)c1c(-c2cccc(Cl)c2)c2cc(C(O)c3nc(-c4ccccc4)cs3)ccc2[nH]c1=O (stereo unspecified) | 127 °C |
| CC(=O)Nc1c(-c2cccc(-n3c(N)nc4ccccc43)c2)cnn1C | 135 to 137 °C |

Consider the additional compound presented here.
Report melting point, nothing else, for this compound: CCN(CC)CCCN1c2cc(C)c(C)cc2N(C)C(=O)c2c(C)cc(C)nc21
104 to 106 °C

----------
Recorded measurements of melting point, one per entry

| compound | result value |
| --- | --- |
| O=C1Cc2ccccc2C(c2ccccc2C(F)(F)F)N1 (stereo not drawn) | 210 to 212 °C |

Report melting point, nothing else, for this compound: CC1(C)C(=O)Nc2cc3[nH]c(C(F)(F)F)nc3cc21
175 to 177 °C

Report melting point, nothing else, for this compound: COc1cc(-n2ccc(C(F)(F)F)cc2=O)c(F)cc1C#N
194 to 196 °C

----------
Recorded measurements of melting point, one per entry

The examples below pair each entry with its known result.
| compound | melting point |
| --- | --- |
| CN(C)CC#CC1=CC[N+]([O-])=C(c2ccccc2)c2cc(Cl)ccc21 | 121 to 123 °C |
| C[C@@H]1C(=O)C[C@H]2C[C@@H]1OO[C@@]2(C)/C=C\c1ccc(Cl)cc1Cl | 137 °C |

Consider the additional compound presented here.
Report melting point, nothing else, for this compound: CC(=O)SCC(CC(C)C)C(=O)Nc1cc(C)cc(C(=O)O)c1 (stereo not drawn)
185 to 187 °C

----------
readout type: melting point

| molecule | result value |
| --- | --- |
| CCOCc1nc2c(N)nc3cc(OCCCN4CCCC4=O)ccc3c2n1CCCCNC(=O)NC(C)C | 98 to 101 °C |

Report melting point, nothing else, for this molecule: COCCN(CCOC)CC1=Cc2ccsc2S(=O)(=O)N1Cc1ccc(OC)cc1
75 to 77 °C

Report melting point, nothing else, for this molecule: OC(CCc1cccnc1)COc1ccc(-c2ccccc2)cc1 (configuration not stated)
83 to 86 °C

Report melting point, nothing else, for this molecule: Cc1nc(N(C)C)ncc1OCc1ccccc1
73 to 74 °C

Report melting point, nothing else, for this molecule: CN(OCc1nc2c(N)nc3ccccc3c2n1CC(C)(C)O)C(N)=O
206 to 207 °C

Report melting point, nothing else, for this molecule: O=c1[nH]c2cc(Cl)cc(Cl)c2c(=O)n1Cc1ccc(I)cc1
314 to 316 °C

Report melting point, nothing else, for this molecule: CNC(=O)c1ccc(C=CC(=O)Nc2cccc(-c3ccc(C)c(COc4cccc5ccc(C)nc45)c3C)c2)cc1
234 to 238 °C

Report melting point, nothing else, for this molecule: O=S1(=O)OCCN1Cc1ccccc1Cl
61 to 62.5 °C

Report melting point, nothing else, for this molecule: CN1C(=O)N(c2ccc(Cl)cc2)S(=O)(=O)c2ccc(OCC(=O)O)cc21
228 to 230 °C

Report melting point, nothing else, for this molecule: O=C(O)Cc1ccc(C(=O)c2ccccc2)s1
144 °C

Report melting point, nothing else, for this molecule: Nc1nc2c(ncn2COC(CC(=O)OC23CC4CC(CC(C4)C2)C3)CC(=O)OC23CC4CC(CC(C4)C2)C3)c(=O)[nH]1 (configuration not stated)
283 to 285 °C

----------
readout type: melting point

| compound | melting point |
| --- | --- |
| CN(C)C(=O)c1ccccc1CS(N)(=O)=O | 149 to 154 °C |
| CN(C)C[C@@H]1C[C@H]1c1c[nH]c2ccc(C#N)cc12 (relative stereo) | 120 to 121 °C |
| COC(=O)N1CCC(=O)C(C2(NO)OCCO2)CC1 (configuration not stated) | 152 to 154 °C |
| COc1cccc(N2CCN(C(=O)[C@](C)(C#N)[C@H](c3ccccc3OC)c3cccc4ccccc34)CC2)c1 | 147 to 148 °C |

Report melting point, nothing else, for this compound: O=C(NCCO)c1cccc(-c2cccc3oc(Cc4cccc(C(F)(F)F)c4)cc23)c1
135 to 136 °C

Report melting point, nothing else, for this compound: COc1ccc2c(c1)Nc1[nH]cnc(=O)c1C2
> 300 °C

Report melting point, nothing else, for this compound: Cc1cc(Cn2c(-c3ccccc3)nc(Cl)c2CC(=O)O)ccc1O
190 to 193 °C
